Tested on: LNCaP tumor-transplanted mouse
Test Details: Internal radioactivity distribution using LNCaP tumor-transplanted mouse
Format: in vivo
Condition Parameters: 24 h after administration
Criterion: Spleen meeting or surpassing 3 % ID/g. Met: 1.0. Not met: 0.0.

{"Compound": "O=C([O-])CN(Cc1cccc(C(=O)[O-])n1)C[C@H](Cc1ccc(NC(=O)CCCCCNC(=O)CCC(=O)NCCCC[C@H](NC(=O)N[C@@H](CCC(=O)O)C(=O)O)C(=O)O)cc1)N(CC(=O)[O-])Cc1cccc(C(=O)[O-])n1.[111In+3] [[^111In]In-Octapa-1, reference compound]", "Class Assignment": 0.0}
{"Compound": "O=C([O-])CN(CCN(CCc1ccc(NC(=O)CCCCCNC(=O)CCC(=O)NCCCC[C@H](NC(=O)N[C@@H](CCC(=O)O)C(=O)O)C(=O)O)cc1)CCN(CC(=O)[O-])Cc1cccc(C(=O)[O-])n1)Cc1cccc(C(=O)[O-])n1.[111In+3] [[^111In]In-Neunpa-1, reference compound]", "Class Assignment": 0.0}
{"Compound": "O=C(O)CC[C@H](NC(=O)N[C@@H](CCCCNC(=O)[C@H](Cc1ccc2ccccc2c1)NC(=O)[C@H]1CC[C@H](CNC(=O)CCC(C(=O)O)N2CCN(CC(=O)O)CCN(C(CCC(=O)N[C@@H](CCCCNC(=O)CCCc3ccc(I)cc3)C(=O)O)C(=O)O)CCN(CC(=O)O)CC2)CC1)C(=O)O)C(=O)O (stereo partly drawn) [[^111In]In-PSMA-NAT-DA1, metal not drawn]", "Class Assignment": 1.0}
{"Compound": "O=C([O-])CN(Cc1cccc(C(=O)[O-])n1)C[C@H](Cc1ccc(NC(=O)[C@H](CCCCNC(=O)CCC(=O)NCCCC[C@H](NC(=O)N[C@@H](CCC(=O)O)C(=O)O)C(=O)O)NC(=O)COCCOCCOCC(=O)N[C@@H](CCCCNC(=O)CCCc2ccc(I)cc2)C(=O)O)cc1)N(CC(=O)[O-])Cc1cccc(C(=O)[O-])n1.[111In+3] [[^111In]In-Octapa-3]", "Class Assignment": 0.0}
{"Compound": "O=C([O-])CN(CCN(CCc1ccc(NC(=O)[C@H](CCCCNC(=O)CCC(=O)NCCCC[C@H](NC(=O)N[C@@H](CCC(=O)O)C(=O)O)C(=O)O)NC(=O)CCCc2ccc(I)cc2)cc1)CCN(CC(=O)[O-])Cc1cccc(C(=O)[O-])n1)Cc1cccc(C(=O)[O-])n1.[111In+3] [[^111In]In-Neunpa-2]", "Class Assignment": 0.0}
{"Compound": "O=C([O-])CN1CCN(C(CCC(=O)NCCCC[C@H](NC(=O)N[C@@H](CCC(=O)O)C(=O)O)C(=O)O)C(=O)[O-])CCN(CC(=O)[O-])CCN(C(CCC(=O)N[C@@H](CCCCNC(=O)CCCc2ccc(I)cc2)C(=O)O)C(=O)[O-])CC1.[111In+3] (stereo partly drawn) [[^111In]In-PSMA-DA1]", "Class Assignment": 1.0}

====

Tested on: LNCaP tumor-transplanted mouse
Test Details: Internal radioactivity distribution using LNCaP tumor-transplanted mouse
Format: in vivo
Condition Parameters: 192 h after administration

{"Compound": "O=C([O-])CN(Cc1cccc(C(=O)[O-])n1)C[C@H](Cc1ccc(NC(=O)[C@H](CCCCNC(=O)CCC(=O)NCCCC[C@H](NC(=O)N[C@@H](CCC(=O)O)C(=O)O)C(=O)O)NC(=O)CCCc2ccc(I)cc2)cc1)N(CC(=O)[O-])Cc1cccc(C(=O)[O-])n1.[111In+3] [[^111In]In-Octapa-2]", "Study Target": "LNCaP tumor-transplanted mouse", "Unit Text": "% ID/g", "Pancreas": 0.08}
{"Compound": "O=C([O-])CN1CCN(C(CCC(=O)NCCCC[C@H](NC(=O)N[C@@H](CCC(=O)O)C(=O)O)C(=O)O)C(=O)[O-])CCN(CC(=O)[O-])CCN(C(CCC(=O)Nc2ccccc2)C(=O)[O-])CC1.[111In+3] (some centres unmarked) [[^111In]In-PSMA-DB, reference compound]", "Study Target": "LNCaP tumor-transplanted mouse", "Unit Text": "% ID/g", "Pancreas": 1.04}
